- studyTarget: human Fc (human)
- protocolDetails: ELISA, negative control
Items are presented alongside their recorded optical density.
// note: answer is a bare numeric in OD

binder: 374_C01 (antibody, V domains shown) VH: EVQLLESGGGLVQPGGSLRLSCAASGFTFDSYGMNWVRQAPGKGLEWVSGINYNSGYKSYADSVKGRFTISRDNSKNTLYLQMNSLRAEDTAVYYCARGANWHDTALDYWGQGTLVTVSS VL: DIQMTQSPSSLSASVGDRVTITCRASQSILTYLNWYQQKPGKAPKLLIYAATSRASGVPSRFSGSGSGTDFTLTISSLQPEDFATYYCQQSYETPLTFGGGTKVEIK
measureUnit: OD
optical density: 0.167
--
binder: 373_D09 (antibody, V domains shown) VH: EVQLLESGGGLVQPGGSLRLSCAASGFTFDSYSMNWVRQAPGKGLEWVSGINYNSGYTSYADSVKGRFTISRDNSKNTLYLQMNSLRAEDTAVYYCARSATWHDTHLDYWGQGTLVTVSS VL: DIQMTQSPSSLSASVGDRVTITCRASQSILTYLNWYQQKPGKAPKLVIYAATSRHSGVPSRFSGSGSGTDFTLTISSLQPEDFATYYCQQSYENPLTFGGGTKVEIK
measureUnit: OD
optical density: 0.16

Exercise: Let me know recorded optical density for 373_E08 (antibody, V domains shown) VH: EVQLLESGGGLVQPGGSLRLSCAASGFTFDSYGMNWVRQAPGKGLEWVSGINYNSGYTSYADSVKGRFTISRDNSKNTLYLQMNSLRAEDTAVYYCARSATWHDTHLDYWGQGTLVTVSS VL: DIQMTQSPSSLSASVGDRVTITCRASQSIVSYVNWYQQKPGKAPKLLIYAVTSRASGVPSRFSGSGSGTDFTLTISSLQPEDFATYYCQQSYESPLTFGGGTKVEIK , thanks.
Key: 0.165
